Test: Half life in human hepatocytes at 2 uM by LC/MS/MS analysis
Conditions: t1/2
half-life at 2 µM by entry:
OBSERVATION_TYPE: half-life at 2 µM (min)

COMPOUND: C[C@H](NP(=O)(CO[C@@H]1C=C(F)[C@H](n2cnc3c(N)ncnc32)O1)Oc1ccccc1)C(=O)OC1CCC1 (stereo in doubt; 18r)
NUMBER: 98
//
COMPOUND: Nc1ncnc2c1ncn2[C@@H]1O[C@H](OCP(=O)(N[C@@H](Cc2ccccc2)C(=O)OCC2CC2)Oc2ccccc2)C=C1F (some centres undefined)
NUMBER: 40
//
COMPOUND: Nc1ncnc2c1ncn2[C@@H]1O[C@H](OCP(=O)(N[C@@H](Cc2ccccc2)C(=O)OCC2CCC2)Oc2ccccc2)C=C1F (some centres undefined)
NUMBER: 62
//
COMPOUND: CC(C)OC(=O)[C@H](C)NP(=O)(CO[C@@H]1C=C(F)[C@H](n2cnc3c(N)ncnc32)O1)Oc1ccccc1 (stereo in doubt; 24)
NUMBER: 159

Origin of measurements: ChEMBL document CHEMBL1157759
